# Tested on: P. falciparum Dd2 (PfLuc) line expressing firefly luciferase, asexual blood stage
# experimentalProtocol: microbe, parasite or virus in culture
# Format: cell-based, Plasmodium falciparum
# conditionParameters: Plasmodium falciparum, DD2, read-out: CDD P. falciparum Luciferase ABS 11-pt Reconfirmation Dose Response (48hr): IC50 (μM); 11-pt dose response, 48hr
endpointLabel: IC50

{"columns": ["compound", "studyTarget", "recordedValue"],
 "data": [
  ["CCC(CC)(CN)NC(C)c1ccccc1 (centres unmarked)", "P. falciparum Dd2 (PfLuc) line expressing firefly luciferase, asexual blood stage", "> 12.5 µM"],
  ["c1cc(-c2n[nH]cc2-c2ccnc(N3CCCCCC3)n2)ccn1", "P. falciparum Dd2 (PfLuc) line expressing firefly luciferase, asexual blood stage", "> 4.16 µM"],
  ["COCCC1(CNC(=O)Nc2ccnc(C)c2)CCCC1", "P. falciparum Dd2 (PfLuc) line expressing firefly luciferase, asexual blood stage", "> 12.5 µM"],
  ["CN1CCC(O)(CNCc2ccc(F)c(C(F)(F)F)c2)CC1", "P. falciparum Dd2 (PfLuc) line expressing firefly luciferase, asexual blood stage", "> 12.5 µM"]
]}

Asked: Report IC50, nothing else, for this compound: `CN1CCC(N(Cc2ccco2)S(=O)(=O)c2ccc(Br)cc2Cl)CC1`
Given back: > 12.5 µM
